- Test system: transactivating tegument protein VP16 (Human herpesvirus 1)
- assay: VP16 transactivation reporter inhibitors, counter-screen for SRC2 inhibitor project, cell-based, luminescence, single concentration (AID 652007)
- test-settings: cell-based VP16 transactivation luciferase reporter, at 8.9 µM, stronger effect = higher value
Classification field: enter criterion met for inhibition values not below 10%, criterion not met for values below it.

[
  {
    "compound": "CN(C)c1ccc(C(C[N+](=O)[O-])c2c(N)n(C)c(=O)n(C)c2=O)c(F)c1C#N (centres undefined)",
    "class-label": "criterion not met"
  },
  {
    "compound": "COC(=O)c1cc(=O)n(-c2ccccc2)c(=Nc2ccccc2)s1",
    "class-label": "criterion not met"
  },
  {
    "compound": "CC1CCN(c2ccc(-c3cccs3)nn2)CC1",
    "class-label": "criterion met"
  },
  {
    "compound": "Cn1nnnc1Sc1ncnc2scc(-c3cccc(S(C)(=O)=O)c3)c12",
    "class-label": "criterion met"
  },
  {
    "compound": "Cc1ccc2c(c1)nnn2C1CCN(CC(=O)N(c2ccccc2)c2ccccc2)CC1",
    "class-label": "criterion met"
  },
  {
    "compound": "O=C(/C=C/c1ccccc1)CC(O)(c1ccccc1)C(F)(F)F (centres undefined)",
    "class-label": "criterion met"
  },
  {
    "compound": "CN(C)C=Nc1ncc2c3ccccc3n(CCN(C)C)c2c1C#N",
    "class-label": "criterion not met"
  },
  {
    "compound": "Cc1nc(SCc2cccc(C(=O)O)c2)nc2c1CCCC2",
    "class-label": "criterion not met"
  },
  {
    "compound": "Cc1cc(C2=NNC(=NC3CC3)SC2)c(C)n1Cc1ccco1",
    "class-label": "criterion met"
  },
  {
    "compound": "COc1ccc(S(=O)(=O)Nc2ccc(C)cn2)cc1",
    "class-label": "criterion not met"
  },
  {
    "compound": "CC(C)C(=O)Nc1cccc2nsnc12",
    "class-label": "criterion not met"
  },
  {
    "compound": "COCCNc1nc(Oc2cncc(Cl)c2)c2sccc2n1",
    "class-label": "criterion met"
  },
  {
    "compound": "O=C(CCCN1C(=O)/C(=C/c2ccccc2Cl)SC1=S)Nc1ccccn1",
    "class-label": "criterion met"
  },
  {
    "compound": "C[C@@H]1C[C@@H]2O[C@H]2CCCCC(=O)Cc2cc(O)cc(O)c2C(=O)O1",
    "class-label": "criterion met"
  }
]
